test system: NF-κB; assay: NF-κB-mediated induction of IL-8 mRNA by TNF-α in MCF-7 cells; assay type: cell-based, human; conditions: Homo sapiens, MCF7, TNF-α, IL-8 mRNA, read-out: IC50 for inhibition of NF-κB gene expression
measured.endpoint: IC50

q: I would be grateful if you could share the reported IC50 for Cn1c(=S)c2[nH]c(SCCCC(=O)c3ccc(F)cc3)nc2n(C)c1=O .
a: > 30 µM

###

molecular target: UniProt P03372; assay: (ERE)3-luciferase reporter gene assay in T47D-KBluc cells; assay type: cell-based; design: Using a stably transfected breast cancer cell line that expresses endogenous ERα; endogenous in cells; host or cells: T47D-KBluc; details: PI-9 in MCF-7 and (ERE)3-Luc in T47D; read-out: average IC50 for inhibition of the two ER-regulated genes
measured.endpoint: pIC50
The scale used: pIC50 is minus the common logarithm of the concentration in molar units.

q: Which pIC50 value is on record for Cn1c(=S)c2[nH]c(SCCCC(=O)c3ccc(F)cc3)nc2n(C)c1=O ?
a: 6.35

###

Target: ERα (Homo sapiens, UniProt P03372)
Sequence (P03372 whole entry): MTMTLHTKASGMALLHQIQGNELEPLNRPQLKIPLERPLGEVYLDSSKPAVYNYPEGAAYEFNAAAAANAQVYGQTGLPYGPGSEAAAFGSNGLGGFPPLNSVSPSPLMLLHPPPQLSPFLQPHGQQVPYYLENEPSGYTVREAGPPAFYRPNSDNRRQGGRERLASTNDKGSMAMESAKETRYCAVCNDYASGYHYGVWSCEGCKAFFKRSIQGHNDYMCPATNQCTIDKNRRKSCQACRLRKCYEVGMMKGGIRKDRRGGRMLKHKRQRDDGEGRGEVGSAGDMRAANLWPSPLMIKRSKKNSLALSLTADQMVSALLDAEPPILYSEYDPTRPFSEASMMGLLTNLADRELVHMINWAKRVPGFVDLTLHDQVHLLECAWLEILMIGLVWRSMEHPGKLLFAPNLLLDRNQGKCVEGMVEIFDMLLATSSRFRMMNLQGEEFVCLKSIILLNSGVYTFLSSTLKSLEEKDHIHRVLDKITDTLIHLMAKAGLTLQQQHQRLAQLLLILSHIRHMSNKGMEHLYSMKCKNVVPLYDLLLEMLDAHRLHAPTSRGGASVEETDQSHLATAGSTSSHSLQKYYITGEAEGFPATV
Assay: (ERE)3-luciferase reporter gene assay in T47D-KBluc cells
Type: cell-based
Set-up: Using a stably transfected breast cancer cell line that expresses endogenous ERα; endogenous in cells; host or cells: T47D-KBluc
Details: T47D (ERE)3-Luc cells, 24 h, FIG. 13; E2 concentration for 99676 not stated; read-out: IC50 for inhibition of ERα-mediated gene expression
Description: The T47D-KBluc cells stably express an (ERE)3-luciferase reporter gene (38). […] Four days before E2 induction, the cells were switched to the above medium, with 10% 2× charcoal-dextran-treated calf serum instead of FBS. […] Luciferase activity was determined using firefly luciferase reagents from Promega (Madison, Wis.). Reporter Gene Assays. […] Luciferase activity was determined using BrightGlo firefly luciferase reagent from Promega (Madison, Wis.).
measured.endpoint: pIC50
pIC50 is a log-scale quantity: -log10 of the concentration expressed in molar.

q: Entry Cn1c(=S)c2[nH]c(SCCCc3ccccc3)nc2n(C)c1=O has what pIC50?
a: 5.05

###

Biological target: human ERα binding to flcERE (Homo sapiens)
Construct: Full-length FLAG-tagged human ERα was expressed and purified as described previously (27); FLAG; made in house
Assay: FAMA: inhibition of ERα binding to flcERE
Settings: FAMA, binding to HRE, 5 concentrations 0.5-10 μM, sequential method; read-out: IC50 ERα
Description: Prior to screening, the 10 mM library stocks were diluted to produce replica libraries in 384-well plates containing each small molecule at 0.25 mM (in DMSO). […] The samples were mixed using the pin-transporter, the plates were briefly centrifuged and incubated at room temperature for 10 min. and fluorescence anisotropy (FA) was measured using a BMG PheraStar (BMG Labtech) microplate reader (module: 485 520) with excitation at 485λ and emission at 520λ. […]
Measured pIC50, listed per entry for reference.
pIC50 field: float, defined as -log10 of concentration (mol/L).

// worked examples, pIC50 included
> print(dat)
                           smiles.structure  measured.endpoint  value.reported
1                      CCCN(C(C)=O)c1ccccc1              pIC50            5.70
2   Cn1c(=O)c2nc(CSCc3ccccc3)[nH]c2n(C)c1=O              pIC50            5.52
3  CCc1c(O)c2c(c(O)c1C(C)=O)C(=O)c1c(cc(O)c(C(=O)O)c1C(=O)O)C2=O              pIC50            5.05

Turning to the following compound.
q: Given O=C(CCBr)OCCc1ccccc1 , state its recorded pIC50.
a: 5.30

###

Target or system human androgen receptor (AR) binding to flARE (Homo sapiens, UniProt P10275); recorded quantity IC50.

Solved entries (count: 7):
> print(dat)
                                   compound  value.reported
1  Nc1c(S(=O)(=O)O)cc(Nc2ccc(S(=O)(=O)O)c(Nc3nc(Cl)nc(Cl)n3)c2)c2c1C(=O)c1ccccc1C2=O            3 µM
2   Cn1c(=O)c2nc(CSCc3ccccc3)[nH]c2n(C)c1=O          7.6 µM
3   CN1CCC(C#N)c2ccccc21 (centres unmarked)          5.2 µM
4  O=C(Nc1cc[c]([Sb](=[O])([OH])[OH])cc1)c1ccccc1         > 10 µM
5                            CC(C)CCOC(=S)S          6.5 µM
6  CC1=NNC(=S)NCCCN2CCN(CCCNC(=S)NN=C(C)C=NNC(=S)NCCCN3CCN(CCCNC(=S)NN=C1)CC3)CC2         > 10 µM
7  O=C(OC1C2COC(O2)C(OC(=O)c2ccccc2)C1OC(=O)c1ccccc1)c1ccccc1 (centres unmarked)          4.8 µM

q: Recall the recorded IC50 for O=C(O)/C=C/c1ccc([N+](=O)[O-])cc1 with human androgen receptor (AR) binding to flARE (Homo sapiens, UniProt P10275) and state it.
a: 3 µM

###

Target: AR (Homo sapiens)
Construct: expressed in transfected cells; host or cells: HeLa (HeLa-AR / HeLaAR)
Sequence (P10275 1-920): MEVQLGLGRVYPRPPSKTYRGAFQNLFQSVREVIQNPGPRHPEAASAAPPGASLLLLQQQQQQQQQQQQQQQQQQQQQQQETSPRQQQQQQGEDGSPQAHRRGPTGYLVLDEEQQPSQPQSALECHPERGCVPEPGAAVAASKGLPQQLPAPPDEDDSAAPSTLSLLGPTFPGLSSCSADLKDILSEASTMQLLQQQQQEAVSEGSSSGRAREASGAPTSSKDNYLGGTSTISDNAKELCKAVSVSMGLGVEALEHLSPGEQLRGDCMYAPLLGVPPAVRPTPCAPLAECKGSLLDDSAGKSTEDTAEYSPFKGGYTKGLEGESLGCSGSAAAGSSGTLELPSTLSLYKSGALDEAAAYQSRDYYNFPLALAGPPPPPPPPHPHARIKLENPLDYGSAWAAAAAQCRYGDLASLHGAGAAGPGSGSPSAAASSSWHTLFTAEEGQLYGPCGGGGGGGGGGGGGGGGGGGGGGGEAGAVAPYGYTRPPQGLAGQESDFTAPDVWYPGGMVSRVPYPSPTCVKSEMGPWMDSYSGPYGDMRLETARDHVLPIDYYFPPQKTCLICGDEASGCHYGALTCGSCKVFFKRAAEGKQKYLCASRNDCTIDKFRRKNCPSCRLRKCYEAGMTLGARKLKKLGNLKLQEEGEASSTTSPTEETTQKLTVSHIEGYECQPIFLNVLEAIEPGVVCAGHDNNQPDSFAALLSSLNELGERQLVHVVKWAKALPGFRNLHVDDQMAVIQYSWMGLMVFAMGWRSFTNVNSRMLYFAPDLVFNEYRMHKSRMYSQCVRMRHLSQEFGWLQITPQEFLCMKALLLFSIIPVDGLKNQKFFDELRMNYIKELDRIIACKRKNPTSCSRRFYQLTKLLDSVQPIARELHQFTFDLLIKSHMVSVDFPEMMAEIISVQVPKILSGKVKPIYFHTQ
Assay: AR-mediated gene expression, PSA-luciferase reporter in stable HeLa-AR cells
Type: cell-based
Conditions: HeLa-AR cells, 80 pM DHT, 24 h; read-out: AR-IC50
measured.endpoint: IC50

Completed entries (count: 2):
> print(dat)
                                   molecule  measured.endpoint  value.reported
1  Cn1c(=O)c2[nH]c(C3CC4CCC3C4)nc2n(C)c1=O (stereo not drawn)               IC50         5000 nM
2        CCCSc1nc2c([nH]1)c(=O)n(C)c(=S)n2C               IC50         1000 nM

Could you now consider this next molecule?
q: Which IC50 value belongs to Cn1c(=O)c2[nH]c(SC3CCCCC3)nc2n(C)c1=S ?
a: 2500 nM

###

test system: BT474 cells; assay: E2-ERα-dependent growth of BT474 cells (MTS); format: cell-based; conditions: Homo sapiens, BT-474, 96 h, 100 pM E2, 4 days, read-out: IC50 for inhibition of E2-ERα-dependent growth of BT474 cells
measured.endpoint: IC50 (µM)
# number only, unit µM dropped from output

q: Recorded IC50 of Cn1c(=S)c2[nH]c(SCCCC(=O)c3ccc(F)cc3)nc2n(C)c1=O [TPSF] , please.
a: 1.6

###

biological target: human ERα binding to flcERE (Homo sapiens, UniProt P03372); construct: Full-length FLAG-tagged human ERα was expressed and purified as described previously (27); FLAG; made in house; test: FAMA: inhibition of ERα binding to flcERE; conditions: FAMA, binding to HRE, 5 concentrations 0.5-10 μM, sequential method; read-out: IC50 ERα
Sequence (P03372 whole entry): as the sequence (P03372 whole entry) above
measured.endpoint: IC50

Some solved cases for reference:
> print(dat)
                            compound  value.reported
1                        CNc1ccccc1O          3.7 µM
2  O=C(O)/C=C/c1ccc([N+](=O)[O-])cc1            5 µM
3              CC(=O)N(C)c1ccc(N)cc1            5 µM

q: Requested field: IC50. Item: O=C(O)c1nn(-c2ccc(Cl)cc2)c2c1C(=O)c1ccccc1C2=O
a: > 10 µM

q: # IC50 lookup, item CC1=NNC(=S)NCCCN2CCN(CCCNC(=S)NN=C(C)C=NNC(=S)NCCCN3CCN(CCCNC(=S)NN=C1)CC3)CC2
a: 8 µM

q: Which IC50 is reported for this compound? Cc1ccccc1NCC(C)O (stereo not shown)
a: 9.5 µM

q: Recorded IC50 of CC(C)/C=N/Nc1ccc([N+](=O)[O-])cc1[N+](=O)[O-] , please.
a: 5.8 µM

q: Need IC50 of Nc1ccc(S(=O)(=O)c2ccc(NCN3C(=O)NC(=O)C(=O)C3=O)cc2)cc1 , thanks.
a: 1.8 µM

q: Requested read-out: IC50. Entry: CN1CCC(C#N)c2ccccc21 (stereo not shown)
a: 4 µM

q: Recorded IC50 for O=[N+]([O-])/C=C/c1ccco1 , please?
a: 8 µM
